logP: recorded values
Please give the numeric answer without any surrounding text.

Reported logP of `c1ccc(-c2ccccn2)nc1` : 1.72

Sure, the documented logP for CCOC(=O)C(C)Oc1ccc(Oc2ccc(C(F)(F)F)cn2)cc1 (stereo unspecified) is 3.9

* * *

Mark yes (1) for logP under 3, no (0) if at or over.

>  <compound>
CO/C=C(/C(=O)OC)c1ccccc1Oc1cc(Oc2ccccc2C#N)ncn1

>  <qualitative-label>
yes (1)

$$$$

Q. Determine if `N#Cc1cc(Br)c(O)c(Br)c1` shows logP strictly lower than 3.
A. yes (1)

Q. Is it true that logP reported for CCCCC(O)(Cn1cncn1)c1ccc(Cl)cc1Cl (stereo not drawn) is less than 3?
A. no (0)

Q. I'd appreciate it if you could check whether `CCNc1nc(Cl)nc(NCC)n1` has logP smaller than 3.
A. yes (1)

* * *

# logP annotations

>  <compound>
Fc1ccc([C@@]2(Cn3cncn3)O[C@@H]2c2ccccc2Cl)cc1

>  <logP>
3.3

$$$$
>  <compound>
CN(C)C(=O)Nc1cc(C(C)(C)C)on1

>  <logP>
1.91

$$$$
>  <compound>
CCNc1nc(Cl)nc(NC(C)C)n1

>  <logP>
2.54

$$$$
>  <compound>
c1ccc2[nH]ccc2c1

>  <logP>
2.15

$$$$
>  <compound>
CC1(C)CCC(Cc2ccc(Cl)cc2)C1(O)Cn1cncn1 (centres undefined)

>  <logP>
3.82

$$$$
>  <compound>
Cc1ccc(CO)cc1

>  <logP>
1.62

$$$$
>  <compound>
COC(=O)NCc1cc(/C(C)=N/OCc2cccc(C)n2)ccc1Cl

>  <logP>
3.64

$$$$
>  <compound>
COC(=O)C(C)N(C(=O)c1ccco1)c1c(C)cccc1C (centres undefined)

>  <logP>
2.59

$$$$

Per the record, `COP(=S)(OC)SCN1C(=O)c2ccccc2C1=O` has logP of 2.71

GET /value?item= COCC(=O)N(c1c(C)cccc1C)C(C)C(=O)OC (centres undefined) &field=logP returns 1.6

logP recorded for this compound, CCCC(=O)c1c(C)cc(C)c(C2CC(=O)C(/C(CC)=N/OCC)=C(O)C2)c1C (centres undefined) , is 4.74

For `COC(=O)C=Cc1ccccc1` the compound record lists logP as 2.67

The recorded logP for entry `COC(=O)c1ccccc1S(=O)(=O)NC(=O)Nc1nc(OC(F)F)cc(OC(F)F)n1` equals 3.49

* * *

// classify: if (logP < 3) criterion met else criterion not met

>  <compound>
CNC(=O)Nc1ccc(S(=O)(=O)NC(=O)c2ccccc2OC)cc1

>  <qualitative-label>
criterion met

$$$$
>  <compound>
O=[N+]([O-])c1c(Cl)c(Cl)cc(Cl)c1Cl

>  <qualitative-label>
criterion not met

$$$$
>  <compound>
CO/C=C(/C(=O)OC)c1ccccc1COc1cc(C(F)(F)F)nc(OC(C)C)n1

>  <qualitative-label>
criterion not met

$$$$
>  <compound>
CC(C)(C)C(=O)C(Oc1ccc(Cl)cc1)n1cncn1 (centres undefined)

>  <qualitative-label>
criterion not met

$$$$
>  <compound>
C#CC(C)(C)NC(=O)c1cc(Cl)cc(Cl)c1

>  <qualitative-label>
criterion not met

$$$$
>  <compound>
O=[N+]([O-])C=C1CCCN1Cc1ccc(Cl)nc1

>  <qualitative-label>
criterion met

$$$$

Q. Please check: logP for `O=Cc1cccc(Oc2ccccc2)c1` , strictly under 3 or not?
A. criterion not met

* * *

measured-quantity: logP
Could you respond with only the numeric value?

// worked examples, logP included
>  <compound>
c1ccc(-c2ccc(C(c3ccccc3)n3ccnc3)cc2)cc1 (stereo unspecified)

>  <measured-quantity>
logP

>  <value-measured>
5.12

$$$$
>  <compound>
CCOC(=O)c1ccc([N+](=O)[O-])cc1

>  <measured-quantity>
logP

>  <value-measured>
2.43

$$$$
>  <compound>
CC(C)(C)C(O)(CCc1ccc(Cl)cc1)Cn1cncn1 (stereo unspecified)

>  <measured-quantity>
logP

>  <value-measured>
3.59

$$$$
>  <compound>
COC(=O)Cc1ccccc1

>  <measured-quantity>
logP

>  <value-measured>
1.75

$$$$
>  <compound>
CCOc1cc(Oc2ccc(C(F)(F)F)cc2Cl)ccc1[N+](=O)[O-]

>  <measured-quantity>
logP

>  <value-measured>
5.19

$$$$

Read the next record carefully.
Briefly, logP measured for `CC(C)N(C(=O)CCl)c1ccccc1` : 2.12
